# tested_system: endothelin receptor A (ETA) (Sus scrofa, UniProt Q29010)
# Construct: A membrane fraction prepared from the porcine heart; from tissue; host or cells: porcine heart membrane fraction
# procedure_summary: Assay of affinity for receptor (1): binding activity on ETA receptor, 125I-labeled endothelin-1, porcine heart membrane fraction
# Set-up: key: relative specific activity; reference cyclic pentapeptide ETA binding = 1.0
# cond: specific activity, taking the binding activity of control cyclo[-D-Glu-Ala-D-aIle-Leu-D-Trp-] on receptor A as 1.0, 25°C, 1 hour
Non-standard residues stand in square brackets, D forms with d. Residues, ends and D or L forms follow the SMILES beside them.
Entries and their Binding Activity on ET Receptor (R. act.) ETA values follow.
Output: the number by itself.

Examples with answers:
[[record]]
molecule = "CC(C)C[C@@H]1NC(=O)[C@@H](CC(C)C)NC(=O)[C@H](CO)NC(=O)[C@H](Cc2c[nH]c3ccccc23)NC(=O)[C@@H](CC(=O)O)NC(=O)[C@@H](Cc2c[nH]c3ccccc23)NC1=O [Example 37, Cyclo[-D-Asp-Trp-Ser-D-Leu-Leu-D-Trp-]] (cyclo(L[dW][dD]WS[dL]))"
numeric_readout = 24

[[record]]
molecule = "CC(C)C[C@@H]1NC(=O)[C@@H](CC(C)C)NC(=O)[C@H](CC(=O)O)NC(=O)[C@H](C)NC(=O)[C@@H](CCC(=O)O)NC(=O)[C@@H](Cc2c[nH]c3ccccc23)NC1=O [Example 41, Cyclo[-D-Glu-Ala-Asp-D-Leu-Leu-D-Trp-]] (cyclo(AD[dL]L[dW][dE]))"
numeric_readout = 2.1

[[record]]
molecule = "CC(C)C[C@@H]1NC(=O)[C@@H](CC(C)C)NC(=O)[C@H](CC(=O)O)NC(=O)[C@H]2CCCN2C(=O)[C@@H](CC(=O)O)NC(=O)[C@@H](Cc2c[nH]c3ccccc23)NC1=O [Example 24, Cyclo[-D-Asp-D-Pro-Asp-D-Leu-Leu-D-Trp-]] (cyclo(D[dL]L[dW][dD][dP]))"
numeric_readout = 1.7

[[record]]
molecule = "CC(C)C[C@@H]1NC(=O)[C@@H](CC(C)C)NC(=O)[C@H](CC(=O)O)NC(=O)[C@H](C(C)C)NC(=O)[C@@H](CC(=O)O)NC(=O)[C@@H](Cc2c[nH]c3ccccc23)NC1=O [Example 17, Cyclo[-D-Asp-Val-Asp-D-Leu-Leu-D-Trp-]] (cyclo(D[dL]L[dW][dD]V))"
numeric_readout = 3.7

[[record]]
molecule = "CC(C)C[C@@H]1NC(=O)[C@@H](CC(C)C)NC(=O)[C@H](CC(=O)O)NC(=O)[C@@H]2CCCN2C(=O)[C@@H](CC(=O)O)NC(=O)[C@@H](Cc2c[nH]c3ccccc23)NC1=O [Example 9, cyclo[-D-Asp-Pro-Asp-D-Leu-Leu-D-Trp-]] (cyclo(D[dL]L[dW][dD]P))"
numeric_readout = 56


Okay, now this molecule:
[in] Would you mind telling me what Binding Activity on ET Receptor (R. act.) ETA value was observed for CC(C)C[C@@H]1NC(=O)[C@@H](CC(C)C)NC(=O)[C@H](CC(=O)O)NC(=O)[C@H](CC(C)C)NC(=O)[C@@H](CC(=O)O)NC(=O)[C@@H](Cc2c[nH]c3ccccc23)NC1=O [Example 18, Cyclo[-D-Asp-Leu-Asp-D-Leu-Leu-D-Trp-]] (cyclo(D[dL]L[dW][dD]L)) ?
[out] 13

---

# tested_system: endothelin receptor A (ETA) (Sus scrofa, UniProt Q29010)
# Construct: A membrane fraction prepared from the porcine heart; from tissue; host or cells: porcine heart membrane fraction
# Sequence (Q29010 21-427): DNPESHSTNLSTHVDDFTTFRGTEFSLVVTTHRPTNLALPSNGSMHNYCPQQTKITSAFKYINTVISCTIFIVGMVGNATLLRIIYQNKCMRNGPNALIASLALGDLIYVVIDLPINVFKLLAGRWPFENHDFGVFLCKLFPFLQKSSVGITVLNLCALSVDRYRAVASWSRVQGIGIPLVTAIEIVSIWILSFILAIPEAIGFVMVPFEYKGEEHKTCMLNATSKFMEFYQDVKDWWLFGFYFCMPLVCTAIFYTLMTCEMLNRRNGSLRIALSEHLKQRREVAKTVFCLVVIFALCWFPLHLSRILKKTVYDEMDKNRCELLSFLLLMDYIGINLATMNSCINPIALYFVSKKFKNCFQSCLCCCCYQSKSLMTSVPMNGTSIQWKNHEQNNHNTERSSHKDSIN
# procedure_summary: Assay of affinity for receptor (1): binding activity on ETA receptor, 125I-labeled endothelin-1, porcine heart membrane fraction
# Design: key: relative specific activity; reference cyclic pentapeptide ETA binding = 1.0
# cond: specific activity, taking the binding activity of control cyclo[-D-Glu-Ala-D-aIle-Leu-D-Trp-] on receptor A as 1.0, 25°C, 1 hour
Non-standard residues stand in square brackets, D forms with d. Residues, ends and D or L forms follow the SMILES beside them. NMeW = CN[C@@H](Cc1c[nH]c2ccccc12)C(=O)O; NMeF = CN[C@@H](Cc1ccccc1)C(=O)O
metric_name: Binding Activity on ET Receptor (R. act.) ETA

Examples with answers:
[[record]]
molecule = "CC(C)C[C@@H]1NC(=O)[C@@H](CC(C)C)NC(=O)[C@H](CC(=O)O)NC(=O)[C@H](Cc2ccccc2)N(C)C(=O)[C@@H](CC(=O)O)NC(=O)[C@@H](Cc2c[nH]c3ccccc23)NC1=O [Example 48] (cyclo(D[dL]L[dW][dD][NMeF]))"
numeric_readout = 2.7

[[record]]
molecule = "CC(C)C[C@@H]1NC(=O)[C@@H](CC(C)C)NC(=O)[C@H](CC(=O)O)NC(=O)[C@@H](C)NC(=O)[C@@H](CC(=O)O)NC(=O)[C@@H](Cc2c[nH]c3ccccc23)NC1=O [Example 15, Cyclo[-D-Asp-D-Ala-Asp-D-Leu-Leu-D-Trp-]] (cyclo(D[dL]L[dW][dD][dA]))"
numeric_readout = 5.7


A. CC(C)C[C@@H]1NC(=O)[C@@H](CC(C)C)NC(=O)[C@H](CC(=O)O)NC(=O)[C@H](Cc2c[nH]c3ccccc23)NC(=O)[C@@H](CC(=O)O)NC(=O)[C@@H](Cc2cn(C)c3ccccc23)NC1=O
B. CC(C)C[C@@H]1NC(=O)[C@@H](CC(C)C)NC(=O)[C@H](CC(=O)O)NC(=O)[C@H](Cc2c[nH]c3ccccc23)N(C)C(=O)[C@@H](CC(=O)O)NC(=O)[C@@H](Cc2c[nH]c3ccccc23)NC1=O [Example 67] (cyclo(D[dL]L[dW][dD][NMeW]))
[in] Which is greater in Binding Activity on ET Receptor (R. act.) ETA, the first item A or the second item B ? Write the label of whichever entry you select.
[out] A

---

# tested_system: endothelin receptor B (ETB) (Bos taurus)
# Construct: A membrane fraction prepared from the bovine brain; from tissue; host or cells: bovine brain membrane fraction
# Sequence (P28088 27-441): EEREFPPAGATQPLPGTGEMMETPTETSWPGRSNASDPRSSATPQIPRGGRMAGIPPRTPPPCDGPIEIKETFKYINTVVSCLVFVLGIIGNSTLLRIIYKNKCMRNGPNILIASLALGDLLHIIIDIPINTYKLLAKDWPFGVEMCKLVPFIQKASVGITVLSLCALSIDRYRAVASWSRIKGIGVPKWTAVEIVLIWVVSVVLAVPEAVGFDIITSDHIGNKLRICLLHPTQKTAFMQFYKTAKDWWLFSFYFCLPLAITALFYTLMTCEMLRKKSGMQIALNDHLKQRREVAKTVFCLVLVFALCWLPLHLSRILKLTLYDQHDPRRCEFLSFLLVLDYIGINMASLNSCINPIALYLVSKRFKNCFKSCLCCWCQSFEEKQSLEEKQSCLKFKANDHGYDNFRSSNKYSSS
# procedure_summary: Assay of affinity for receptor (2): binding activity on ETB receptor *1, 125I-labeled endothelin-1, bovine brain membrane fraction
# cond: specific activity, taking the binding activity of the compound of Example 8 on receptor B as 100, 25°C, 1 hour
Non-standard residues stand in square brackets, D forms with d. Residues, ends and D or L forms follow the SMILES beside them. *: point of attachment. Bn = c1ccc(C*)cc1
metric_name: Binding Activity on ET Receptor (R. act.) ETB*1
Output: the number by itself.

[in] Would you mind telling me what Binding Activity on ET Receptor (R. act.) ETB*1 value was observed for CC(C)C[C@@H]1NC(=O)[C@@H](CC(C)C)NC(=O)[C@H](CO)NC(=O)[C@H](Cc2c[nH]c3ccccc23)NC(=O)[C@@H](CC(=O)O)NC(=O)[C@@H](Cc2c[nH]c3ccccc23)NC1=O [Example 37, Cyclo[-D-Asp-Trp-Ser-D-Leu-Leu-D-Trp-]] (cyclo(L[dW][dD]WS[dL])) ?
[out] 22

[in] Do the same for CC(C)C[C@@H]1NC(=O)[C@@H](CC(C)C)NC(=O)[C@@H]2CCCN2C(=O)[C@H](Cc2c[nH]c3ccccc23)NC(=O)[C@@H](CC(=O)O)NC(=O)[C@@H](Cc2c[nH]c3ccccc23)NC1=O [Example 36, Cyclo[-D-Asp-Trp-Pro-D-Leu-Leu-D-Trp-]] (cyclo(L[dW][dD]WP[dL])) please
[out] 40

[in] Do the same for CC(C)C[C@@H]1NC(=O)[C@H](Cc2c[nH]c3ccccc23)NC(=O)[C@@H](CC(=O)O)NC(=O)[C@@H](Cc2c[nH]c3ccccc23)NC(=O)[C@H](CC(C)C)NC(=O)[C@@H](CC(C)C)NC1=O [Example 35, Cyclo[-D-Asp-Trp-Leu-D-Leu-Leu-D-Trp-]] (cyclo(L[dL]L[dW][dD]W)) please
[out] 52

[in] Do the same for CC(C)C[C@@H]1NC(=O)[C@@H](CC(C)C)NC(=O)[C@H](COCc2ccccc2)NC(=O)[C@H](Cc2c[nH]c3ccccc23)NC(=O)[C@@H](CC(=O)O)NC(=O)[C@@H](Cc2c[nH]c3ccccc23)NC1=O [Example 38] (cyclo(L[dW][dD]WS(Bn)[dL])) please
[out] 66

[in] Do the same for CC(C)C[C@@H]1NC(=O)[C@@H](CC(C)C)NC(=O)[C@H](CC(=O)O)NC(=O)[C@H](C)NC(=O)[C@@H](CC(=O)O)NC(=O)[C@@H](Cc2c[nH]c3ccccc23)NC1=O [Example 1, cyclo[-D-Asp-Ala-Asp-D-Leu-Leu-D-Trp-]] (cyclo(AD[dL]L[dW][dD])) please
[out] 13

Values were extracted from patent EP0552417B1.
